pEC50 values, listed per item
# assayedSystem: human M2 receptor (Homo sapiens, UniProt P08172)
# method: Functional M2-GIRK1/4 activation test: allosteric potency (EC50) and efficiency
# assaySetup: Receptor activity EC50, CHO-DUKX-M2-GIRK cells; acetylcholine at EC20; in some cases mean of two or more determinations
pEC50: −log10 of the molar value.
measurementKind: pEC50

compound	measurementKind	testResult
CC(C)(C)[C@@H](NC(=O)c1cn(-c2ncc(F)cc2F)c2nc(N3C[C@@H](O)CC3=O)ccc2c1=O)C(F)(F)F [Example 73]	pEC50	8.00
CC(C)C[C@H](NC(=O)c1cn(-c2ncc(F)cc2F)c2nc(N3CCNC3=O)ccc2c1=O)C(F)(F)F [Example 157]	pEC50	7.30
CC(C)C(NC(=O)c1cn(-c2ncc(F)cc2F)c2nc(N3CCNC3=O)ccc2c1=O)C(F)(F)F (racemic) [Example 169]	pEC50	6.92
CC(C)C[C@@H](NC(=O)c1cn(-c2ncc(F)cc2F)c2nc(N3C[C@@H](O)[C@H](O)C3)ccc2c1=O)C(F)(F)F [Example 81]	pEC50	7.82

###

pEC50 overview
# assayedSystem: human M2 receptor (Homo sapiens, UniProt P08172)
# method: Functional M2-GIRK1/4 activation test: allosteric potency (EC50) and efficiency
# assaySetup: Receptor activity EC50, CHO-DUKX-M2-GIRK cells; acetylcholine at EC20; in some cases mean of two or more determinations
pEC50: −log10 of the molar value.
measurementKind: pEC50

compound	measurementKind	testResult
CC(NC(=O)c1cn(-c2ncc(F)cc2F)c2nc(N3C[C@@H](O)[C@H](O)C3)ccc2c1=O)(C1CC1)C(F)(F)F (stereo partly drawn)	pEC50	6.70
CC(NC(=O)c1cn(-c2ncc(F)cc2F)c2nc(N3CCC[C@@H]3CO)ccc2c1=O)C(F)(F)C(F)(F)F (single isomer, unassigned)	pEC50	7.22
CC(C)C[C@@H](NC(=O)c1cn(-c2ncc(F)cc2F)c2nc(N3CCNC3=O)ccc2c1=O)C(F)(F)F	pEC50	7.44

###

# assayedSystem: human M2 receptor (Homo sapiens)
# Sequence (P08172 1-466): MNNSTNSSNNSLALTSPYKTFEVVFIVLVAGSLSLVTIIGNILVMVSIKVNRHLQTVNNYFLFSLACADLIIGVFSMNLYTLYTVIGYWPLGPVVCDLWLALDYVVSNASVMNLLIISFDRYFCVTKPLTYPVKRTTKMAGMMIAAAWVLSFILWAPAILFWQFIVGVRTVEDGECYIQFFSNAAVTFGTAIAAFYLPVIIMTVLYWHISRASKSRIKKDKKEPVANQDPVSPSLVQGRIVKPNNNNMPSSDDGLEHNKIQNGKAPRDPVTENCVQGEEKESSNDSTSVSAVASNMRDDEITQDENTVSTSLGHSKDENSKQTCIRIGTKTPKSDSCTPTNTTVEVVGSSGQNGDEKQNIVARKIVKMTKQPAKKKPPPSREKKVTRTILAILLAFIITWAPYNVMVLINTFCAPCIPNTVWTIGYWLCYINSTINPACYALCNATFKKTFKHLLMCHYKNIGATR
# method: Functional M2-GIRK1/4 activation test: allosteric potency (EC50) and efficiency
# assaySetup: Receptor activity EC50, CHO-DUKX-M2-GIRK cells; acetylcholine at EC20; in some cases mean of two or more determinations
measurementKind: EC50 (nM)

compound	testResult
CC1CC(=O)N(c2ccc3c(=O)c(C(=O)N[C@H](C4CC4)C(F)(F)F)cn(-c4ncc(F)cc4F)c3n2)C1 (single isomer, unassigned) [Example 28]	19
CC[C@H](NC(=O)c1cn(-c2c(F)cncc2F)c2nc(N3C[C@@H](O)[C@H](O)C3)ccc2c1=O)C(F)(F)F [Example 118]	500
CC(C)(CC(F)(F)F)NC(=O)c1cn(-c2ncc(F)cc2F)c2nc(N3C[C@@H](O)CC3=O)ccc2c1=O [Example 80]	120
CC[C@@H](NC(=O)c1cn(-c2ncc(F)cc2F)c2nc(N3CC4CC4(O)C3)ccc2c1=O)C(F)(F)F (single isomer, unassigned) [Example 45]	57
O=C(NC(c1ccc(F)cc1)C(F)(F)F)c1cn(-c2ncc(F)cc2F)c2nc(N3C[C@@H](O)CC3=O)ccc2c1=O (single isomer, unassigned) [Example 12]	55
CC(C)C[C@@H](NC(=O)c1cn(-c2ncc(F)cc2F)c2nc(N3C[C@@H](O)CC3=O)ccc2c1=O)C(F)(F)F [Example 74]	14
CC(NC(=O)c1cn(-c2ncc(F)cc2F)c2nc(N3C[C@@H](O)CC3=O)ccc2c1=O)C(F)(F)C(F)(F)F (mixture of isomers) [Example 76]	35
CC[C@@H](NC(=O)c1cn(-c2ncc(F)cc2F)c2nc(N3CCCC(O)C3)ccc2c1=O)C(F)(F)F (mixture of isomers) [Example 117]	400
CC(NC(=O)c1cn(-c2ncc(F)cc2F)c2nc(N3CCC(CO)(CO)CC3)ccc2c1=O)C(F)(F)C(F)(F)F (single isomer, unassigned) [Example 185]	121
O=C(NC(c1ccccc1Cl)C(F)(F)F)c1cn(-c2ncc(F)cc2F)c2nc(N3C[C@@H](O)CC3=O)ccc2c1=O (single isomer, unassigned) [Example 5]	31
CC(C)(C)[C@@H](NC(=O)c1cn(-c2ncc(F)cc2F)c2nc(N3CCN(CCO)C3=O)ccc2c1=O)C(F)(F)F [Example 126]	87
O=C(Nc1c(Cl)cccc1Cl)c1cn(-c2ncc(F)cc2F)c2nc(N3C[C@@H](O)[C@H](O)C3)ccc2c1=O [Example 67]	53
CC(C)(C)[C@H](NC(=O)c1cn(-c2ncc(F)cc2F)c2nc(N3CCN(CCO)C3=O)ccc2c1=O)C(F)(F)F [Example 124]	130
CC(NC(=O)c1cn(-c2ncc(F)cc2F)c2nc(N3CCC(O)(CO)CC3)ccc2c1=O)C(F)(F)C(F)(F)F (single isomer, unassigned) [Example 177]	38
CC(NC(=O)c1cn(-c2ncc(F)cc2F)c2nc(N3C[C@@H](O)[C@H](O)C3)ccc2c1=O)C(F)(F)C(F)(F)F (mixture of isomers) [Example 88]	59
O=C(NC(C(F)(F)F)C(F)(F)F)c1cn(-c2ncc(F)cc2F)c2nc(N3C[C@@H](O)CC3=O)ccc2c1=O [Example 15]	43
CC1C(O)C2(CC2)C(=O)N1c1ccc2c(=O)c(C(=O)N[C@H](C3CC3)C(F)(F)F)cn(-c3ncc(F)cc3F)c2n1 (stereo partly shown) [Example 114]	111
CC(C)(CC(F)(F)F)NC(=O)c1cn(-c2ncc(F)cc2F)c2nc(N3C[C@@H](O)[C@H](O)C3)ccc2c1=O [Example 91]	280
CC(C)(C)[C@H](NC(=O)c1cn(-c2ncc(F)cc2F)c2nc(N3CCCN(CCO)C3=O)ccc2c1=O)C(F)(F)F [Example 125]	73
CC1C(=O)N(c2ccc3c(=O)c(C(=O)N[C@@H](C4CC4)C(F)(F)F)cn(-c4ncc(F)cc4F)c3n2)CC1O (mixture of isomers) [Example 104]	250
O=C(N[C@@H](C1CC1)C(F)(F)F)c1cn(-c2ncc(F)cc2F)c2nc(N3C[C@H](O)[C@@H](O)C3)ccc2c1=O [Example 61]	795
CC(C)(CC(F)(F)F)NC(=O)c1cn(-c2ncc(F)cc2F)c2nc(N3CCNC3=O)ccc2c1=O [Example 145]	435
CCC(COC(F)(F)F)NC(=O)c1cn(-c2ncc(F)cc2F)c2nc(N3C[C@@H](O)CC3=O)ccc2c1=O (mixture of isomers) [Example 17]	111
O=C(N[C@H](C1CC1)C(F)(F)F)c1cn(-c2ncccc2Cl)c2nc(N3CC4CC4(O)C3)ccc2c1=O (mixture of isomers) [Example 54]	350
CC1CC(=O)N(c2ccc3c(=O)c(C(=O)N[C@H](C4CC4)C(F)(F)F)cn(-c4ncc(F)cc4F)c3n2)C1 (single isomer, unassigned) [Example 29]	59

###

# assayedSystem: human M2 receptor (Homo sapiens)
# method: Functional M2-GIRK1/4 activation test: allosteric potency (EC50) and efficiency
# assaySetup: Receptor activity EC50, CHO-DUKX-M2-GIRK cells; acetylcholine at EC20; in some cases mean of two or more determinations
Items are presented alongside their recorded EC50.

compound	EC50 [nM]
O=C(NC(C(F)(F)F)C(F)(F)F)c1cn(-c2ncc(F)cc2F)c2nc(N3CCCC[C@@H]3CO)ccc2c1=O	56
CC[C@H](NC(=O)c1cn(-c2c(F)cncc2F)c2nc(N3C[C@@H](O)CC3=O)ccc2c1=O)C(F)(F)F	560
CC(C)(NC(=O)c1cn(-c2ncc(F)cc2F)c2nc(N3CCC(CO)(CO)CC3)ccc2c1=O)C(F)(F)C(F)(F)F	265
CC[C@@H](NC(=O)c1cn(-c2ncc(F)cc2Cl)c2nc(N3C[C@@H](O)CC3=O)ccc2c1=O)C(F)(F)F	330
CCC(NC(=O)c1cn(-c2ncc(F)cc2F)c2nc(N3C[C@@H](O)[C@H](O)C3)ccc2c1=O)C(F)(F)C(F)(F)F (single isomer, unassigned) [Example 97]	38
O=C(NC(c1ccccc1Cl)C(F)(F)F)c1cn(-c2ncc(F)cc2F)c2nc(N3C[C@@H](O)[C@H](O)C3)ccc2c1=O (mixture of isomers) [Example 83]	17

Numbers sourced from patent US10519154B2.
